pIC50: −log10 of the molar value.
Here's a roundup of pIC50 values tested on Cytochrome P450 2A6 (Homo sapiens, UniProt P11509), taken from various published works.
Measurement Type: pIC50

O=c1cc(-c2ccc(O)c(-c3c(-c4ccc(O)cc4)oc4cc(O)cc(O)c4c3=O)c2)oc2cc(O)cc(O)c12 4.97
C#CCOCc1cccnc1 6.00
c1cncc(Cn2ccnc2)c1 5.30
O=C(O)COc1ccccc1-c1cc(=O)c2ccccc2o1 5.81
